Biological target: eDHFR (Escherichia coli, UniProt P0ABQ4)
Construct: made in house; host or cells: E. cloni EXPRESS BL21 (DE3) cells (Lucigen), pT7-SC1 plasmid
Sequence (P0ABQ4 whole entry): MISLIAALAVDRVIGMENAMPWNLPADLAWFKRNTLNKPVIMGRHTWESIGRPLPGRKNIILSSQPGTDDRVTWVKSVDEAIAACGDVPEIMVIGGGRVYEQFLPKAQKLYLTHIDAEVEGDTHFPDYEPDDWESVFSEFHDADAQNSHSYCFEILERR
Experiment: biochemical
Conditions: DHFR inhibition IC50 (nM) before irradiation, before irradiation
MEASUREMENT LABEL: IC50
Reply with the number, then its unit.

Worked set:
- COMPOUND: "COc1ccc(/N=N/c2ccc(C(C)(C#Cc3cnc(N)nc3N)OC)cc2)cc1 (stereo not drawn)"
  TEST TARGET: "eDHFR (Escherichia coli, UniProt P0ABQ4)"
  IC50: "330 nM"
- COMPOUND: "COC(C)(C#Cc1cnc(N)nc1N)c1ccc(/N=N/c2ccc(C(=O)O)c(Cl)c2)cc1 (stereo not drawn)"
  TEST TARGET: "eDHFR (Escherichia coli, UniProt P0ABQ4)"
  IC50: "52 nM"

Could you now consider this next compound?
Input line: For COC(C)(C#Cc1cnc(N)nc1N)c1ccc(/N=N/c2ccc(C(=O)O)cc2)cc1 (stereo not drawn) , what is its reported IC50?
Output line: 58 nM

* * *

Target: eDHFR (Escherichia coli, UniProt P0ABQ4)
Construct: made in house; host or cells: E. cloni EXPRESS BL21 (DE3) cells (Lucigen), pT7-SC1 plasmid
Test: biochemical
Settings: IC50 Dark, dark-adapted (thermally adapted, trans isomer)
MEASUREMENT LABEL: IC50 (nM)
Give the quantity in nM, number only.

- COMPOUND: "COC(C)(C#Cc1cnc(N)nc1N)c1ccc(/N=N/c2ccccc2)cc1 (stereo not drawn)"
  MEASUREMENT LABEL: "IC50"
  QUANTITATIVE READOUT: 370

Could you now consider this next compound?
Input line: For COc1ccc(/N=N/c2ccc(C(C)(C#Cc3cnc(N)nc3N)OC)cc2)cc1 (stereo not drawn) , what is its reported IC50?
Output line: 330

* * *

Biological target: eDHFR (Escherichia coli, UniProt P0ABQ4);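 also: purified E. coli DHFR colorimetric assay, enzyme with NADPH 3 min then inhibitor (10^-12 to 10^-5 M) 7 min, rate ΔAbs/s relative to DMSO control (1% v/v), triplicates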
Construct: made in house; host or cells: E. cloni EXPRESS BL21 (DE3) cells (Lucigen), pT7-SC1 plasmid
Experiment: biochemical
Settings: irradiation with λ1 = 365 nm
MEASUREMENT LABEL: light-induced change in eDHFR inhibition (dark IC50 vs irradiated IC50)

Worked set:
- COMPOUND: "COC(C)(C#Cc1cnc(N)nc1N)c1ccc(/N=N/c2ccc(C(=O)O)c(Cl)c2)cc1 (stereo not shown) [Compound 15]"
  TEST TARGET: "eDHFR (Escherichia coli, UniProt P0ABQ4)"
  RESULT: "2 fold"
- COMPOUND: "COC(C)(C#Cc1cnc(N)nc1N)c1ccc(/N=N/c2ccc(C)c(C(=O)O)c2)cc1 (stereo not shown) [Compound 12]"
  TEST TARGET: "eDHFR (Escherichia coli, UniProt P0ABQ4)"
  RESULT: "5 fold"
- COMPOUND: "COC(C)(C#Cc1cnc(N)nc1N)c1ccc(/N=N/c2ccc(C(=O)O)c(C)c2)cc1 (stereo not shown) [Compound 14]"
  TEST TARGET: "eDHFR (Escherichia coli, UniProt P0ABQ4)"
  RESULT: "2 fold"
- COMPOUND: "COC(C)(C#Cc1cnc(N)nc1N)c1ccc(/N=N/c2ccccc2)cc1 (stereo not shown) [Compound 6]"
  TEST TARGET: "eDHFR (Escherichia coli, UniProt P0ABQ4)"
  RESULT: "2 fold"
- COMPOUND: "COC(C)(C#Cc1cnc(N)nc1N)c1ccc(/N=N/c2ccc(C(=O)O)cc2)cc1 (stereo not shown) [Compound 11]"
  TEST TARGET: "eDHFR (Escherichia coli, UniProt P0ABQ4)"
  RESULT: "not significant"

Could you now consider this next compound?
Input line: For COC(C)(C#Cc1cnc(N)nc1N)c1cccc(/N=N/c2ccccc2)c1 (stereo not shown) [Compound 7] , what is its reported light-induced change in eDHFR inhibition (dark IC50 vs irradiated IC50)?
Output line: not significant
